TEST_METHOD_NOTES: Half life assessed as decomposition into amines and unsaturated ketones at 250 uM in 50 mM Tris/maleate pH 7.5 buffer by HPLC method
Format: physicochemical
CONDITIONS: Tris/maleate buffer, pH 7.5
MEASURED_METRIC: half-life at 250 µM (h)

MOLECULE: COc1ccc2c(c1)CC(CN(C)C)C2=O.Cl (stereo not given)
UNITS_OF_MEASURE: h
half-life at 250 µM: 0.75

MOLECULE: CC1CC(CN(C)C)C(=O)c2ccccc21.Cl (stereo not given)
UNITS_OF_MEASURE: h
half-life at 250 µM: 4.82

I = CN(C)CC1Cc2c(cccc2C(F)(F)F)C1=O.Cl (stereo not given)
II = COc1ccc2c(c1)C(=O)C(CN(C)C)C2.Cl (stereo not given)
Which is greater in half-life at 250 µM, the first item I or the second item II ? Let me know the label of the one you choose.
I

###

TEST_METHOD_NOTES: Half life assessed as decomposition into amines and unsaturated ketones at 250 uM in 50 mM Tris/maleate pH 7.5 buffer by HPLC method
Assay type: physicochemical
CONDITIONS: Tris/maleate buffer, pH 7.5
MEASURED_METRIC: half-life at 250 µM (h)

A = CN(C)CC1CCc2ccccc2C1=O.Cl (stereo unspecified)
B = COc1ccc2c(c1)C(=O)C(CN1CCCCC1)CC2.Cl (stereo unspecified)
Hey, which is lower on measured half-life at 250 µM, A or B ? Let me know the label of the one you choose.
A
(A: 5.78 h, B: 10.5 h)

1 = COc1ccc2c(c1)C(=O)C(CN(C)C)CC2.Cl (stereo unspecified)
2 = Cc1cc(C)c2c(c1)C(=O)C(CN(C)C)CC2.Cl (stereo unspecified)
Hey, which is lower on measured half-life at 250 µM, 1 or 2 ? Let me know the label of the one you choose.
1
(1: 6.8 h, 2: 14.4 h)
